Listing: IC50 of selected compounds
target: human neutrophil elastase (HNE) (Homo sapiens, UniProt P08246); assay: HNE enzyme activity assay (fluorogenic peptide substrate MeOSuc-Ala-Ala-Pro-Val-AMC); conditions: human leukocyte elastase 0.00072 U/mL, substrate 100 μM, 25° C., 30 minutes, pH 7.5; at least two separate experiments; read-out: FINE inhibition (HNE enzyme inhibition, IC50 values)

INSERT INTO assay_data (compound, endpoint_result) VALUES
  ('Cc1c(-c2ccnn2-c2ccc(C#N)cc2)n(S(C)(=O)=O)c(=O)n1-c1cccc(C(F)(F)F)c1', '< 1 nM'),
  ('Cc1c(-c2nccn2-c2ccc(C#N)cc2)n(C(=O)NC2CCC2)c(=O)n1-c1cccc(C(F)(F)F)c1', '< 1 nM'),
  ('CCCC(=O)n1c(-c2ccnn2-c2ccc(C#N)cc2)c(C)n(-c2cccc(C(F)(F)F)c2)c1=O', '< 1 nM'),
  ('Cc1c(-c2ccnn2-c2ccc(C#N)cc2)n(C(=O)NCc2cccnc2)c(=O)n1-c1cccc(C(F)(F)F)c1', '1 to 10 nM');

Input: Quick one: IC50 for CCCC(C)n1c(-c2ccnn2-c2ccc(C#N)cc2)c(C)n(-c2cccc(C(F)(F)F)c2)c1=O (stereo not shown) ?
Output: 1 to 10 nM

Input: Any idea what IC50 was measured for COC(=O)n1c(-c2ccnn2-c2ccc(C#N)cc2)c(C)n(-c2cccc(C(F)(F)F)c2)c1=O ?
Output: < 1 nM

###

target: human neutrophil elastase (HNE) (Homo sapiens); experiment: HNE enzyme activity assay (fluorogenic peptide substrate MeOSuc-Ala-Ala-Pro-Val-AMC); settings: human leukocyte elastase 0.00072 U/mL, substrate 100 μM, 25° C., 30 minutes, pH 7.5; at least two separate experiments; read-out: FINE inhibition (HNE enzyme inhibition, IC50 values)
# IC50 annotations

Example cases with answers are listed next.
INSERT INTO measurements (compound_structure, endpoint_result) VALUES
  ('Cc1c(-c2ccnn2-c2ccc(C#N)cc2)n(S(=O)(=O)NC2CC2)c(=O)n1-c1cccc(C(F)(F)F)c1', '1 to 10 nM'),
  ('CCCCC(=O)n1c(-c2ccnn2-c2ccc(C#N)cc2)c(C)n(-c2cccc(C(F)(F)F)c2)c1=O', '< 1 nM'),
  ('Cc1c(-c2ccnn2-c2ccc(C#N)cc2)n(C(=O)NCCCN(C)C)c(=O)n1-c1cccc(C(F)(F)F)c1', '1 to 10 nM');

Okay, now this molecule:
Input: What IC50 value was documented for this molecule, CCNC(=O)n1c(-c2ccnn2-c2ccc(C#N)cc2)c(C)n(-c2cccc(C(F)(F)F)c2)c1=O ?
Output: < 1 nM

###

Listed below: IC50 values for each entry.
Target: human neutrophil elastase (HNE) (Homo sapiens)
Sequence (P08246 30-247 limits assumed): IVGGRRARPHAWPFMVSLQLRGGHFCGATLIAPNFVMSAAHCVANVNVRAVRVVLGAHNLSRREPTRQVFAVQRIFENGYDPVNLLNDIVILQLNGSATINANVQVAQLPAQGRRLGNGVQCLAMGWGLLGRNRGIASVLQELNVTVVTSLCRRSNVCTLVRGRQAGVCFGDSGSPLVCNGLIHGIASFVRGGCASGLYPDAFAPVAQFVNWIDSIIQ
Test: HNE enzyme activity assay (fluorogenic peptide substrate MeOSuc-Ala-Ala-Pro-Val-AMC)
Details: human leukocyte elastase 0.00072 U/mL, substrate 100 μM, 25° C., 30 minutes, pH 7.5; at least two separate experiments; read-out: FINE inhibition (HNE enzyme inhibition, IC50 values)

The cases that follow already have their IC50 on record.
INSERT INTO assay_data (molecule, endpoint_result) VALUES
  ('CNC(=O)Cn1c(-c2ccnn2-c2ccc(C#N)cc2)c(C)n(-c2cccc(C(F)(F)F)c2)c1=O [Example 23]', '10 to 50 nM'),
  ('Cc1c(-c2ccnn2-c2ccc(C#N)cc2)n(CC(=O)N2CCN(C)CC2)c(=O)n1-c1cccc(C(F)(F)F)c1 [Example 38]', '1 to 10 nM'),
  ('Cc1c(-c2ccnn2-c2ccc(C#N)cc2F)n(C(=O)NC2CCCC2)c(=O)n1-c1cccc(C(F)(F)F)c1 [Example 58]', '< 1 nM'),
  ('Cc1c(-c2ccnn2-c2ccc(C#N)cc2)n(CCN(C)C)c(=O)n1-c1cccc(C(F)(F)F)c1 [Example 29]', '1 to 10 nM'),
  ('Cc1c(-c2ccnn2-c2ccc(C#N)cc2)n(CC(=O)O)c(=O)n1-c1cccc(C(F)(F)F)c1 [Example 22]', '10 to 50 nM');

Input: What IC50 value was documented for this molecule, Cc1c(-c2ccnn2-c2ccc(C#N)cc2)n(CC(=O)N2CCCC2)c(=O)n1-c1cccc(C(F)(F)F)c1 [Example 36] ?
Output: 1 to 10 nM

Input: I would be grateful if you could share the reported IC50 for Cc1c(-c2ccnn2-c2ccc(C#N)cc2)n(C(=O)NC2CC2)c(=O)n1-c1cccc(C(F)(F)F)c1 [Example 42] .
Output: < 1 nM

Input: I'd like to know its IC50. The molecule in question is Cc1c(-c2ccnn2-c2ccc(C#N)cc2S(C)(=O)=O)[nH]c(=O)n1-c1cccc(C(F)(F)F)c1 [Example 55]
Output: > 50 nM

Input: If you can, please state the reported IC50 value of Cc1c(-c2ccnn2-c2ccc(C#N)cc2)n(C(=O)N[C@@H]2CCC[C@H]2O)c(=O)n1-c1cccc(C(F)(F)F)c1 [Example 53] .
Output: < 1 nM

Input: Please give the measured IC50 for this molecule: Cc1c(-c2ccnn2-c2ccc(C#N)cc2)n(C(=O)NCc2ccncc2)c(=O)n1-c1cccc(C(F)(F)F)c1 [Example 51]
Output: < 1 nM

Input: Any idea what IC50 was measured for CCCS(=O)(=O)n1c(-c2ccnn2-c2ccc(C#N)cc2)c(C)n(-c2cccc(C(F)(F)F)c2)c1=O [Example 31] ?
Output: 1 to 10 nM

Input: // lookup IC50 for Cc1c(-c2ccnn2-c2ccc(C#N)cc2)n(C(=O)NC2CCCC2)c(=O)n1-c1cccc(C(F)(F)F)c1 [Example 45]
Output: < 1 nM

Input: Which measured IC50 value corresponds to CCS(=O)(=O)N1CCC(NC(=O)n2c(-c3ccnn3-c3ccc(C#N)cc3)c(C)n(-c3cccc(C(F)(F)F)c3)c2=O)CC1 [Example 43] ?
Output: < 1 nM

###

molecular target: human neutrophil elastase (HNE) (Homo sapiens); assay: HNE enzyme activity assay (fluorogenic peptide substrate MeOSuc-Ala-Ala-Pro-Val-AMC); conditions: human leukocyte elastase 0.00072 U/mL, substrate 100 μM, 25° C., 30 minutes, pH 7.5; at least two separate experiments; read-out: FINE inhibition (HNE enzyme inhibition, IC50 values)
pIC50: −log10 of the molar value.
measured_parameter: pIC50

# annotated cases, reported pIC50 shown
INSERT INTO results (compound, measured_parameter, endpoint_result) VALUES
  ('Cc1c(-c2ccnn2-c2ccc(C#N)cc2)n(C(=O)N[C@H]2CCOC2)c(=O)n1-c1cccc(C(F)(F)F)c1', 'pIC50', '> 9.00'),
  ('Cc1c(-c2nccn2-c2ccc(C#N)cc2)n(C(=O)NC2CCCC2)c(=O)n1-c1cccc(C(F)(F)F)c1', 'pIC50', '> 9.00'),
  ('Cc1c(-c2ccnn2-c2ccc(C#N)cc2)n(C(=O)NC2CCOCC2)c(=O)n1-c1cccc(C(F)(F)F)c1', 'pIC50', '> 9.00'),
  ('Cc1c(-c2ccn(-c3ccc(C#N)cc3Br)n2)n(C(=O)NC2CCCC2)c(=O)n1-c1cccc(C(F)(F)F)c1', 'pIC50', '7.30 to 8.00'),
  ('CCOC(=O)n1c(-c2ccnn2-c2ccc(C#N)cc2)c(C)n(-c2cccc(C(F)(F)F)c2)c1=O', 'pIC50', '> 9.00'),
  ('Cc1c(-c2ccnn2-c2ccc(C#N)cc2)n(C(=O)NCC2CCN(C)CC2)c(=O)n1-c1cccc(C(F)(F)F)c1', 'pIC50', '8.00 to 9.00');

Continue with the compound presented below.
Input: I would be grateful if you could share the reported pIC50 for Cc1c(-c2ncnn2-c2ccc(C#N)cc2)n(C(=O)NC2CCCC2)c(=O)n1-c1cccc(C(F)(F)F)c1 .
Output: > 9.00

###

Quick reference for IC50 among some molecules
biological target: human neutrophil elastase (HNE) (Homo sapiens); assay: HNE enzyme activity assay (fluorogenic peptide substrate MeOSuc-Ala-Ala-Pro-Val-AMC); conditions: human leukocyte elastase 0.00072 U/mL, substrate 100 μM, 25° C., 30 minutes, pH 7.5; at least two separate experiments; read-out: FINE inhibition (HNE enzyme inhibition, IC50 values)
Where a name gives a salt, the structure may show the parent alone.

INSERT INTO assay_data (molecule, endpoint_result) VALUES
  ('Cc1c(-c2ccnn2-c2ccc(C#N)cc2)n(CCCN(C)C)c(=O)n1-c1cccc(C(F)(F)F)c1 [Example 30]', '0.001 to 0.01 µM');

Input: Item under review: Cc1c(-c2ccnn2-c2ccc(C#N)cc2)n(C(=O)N[C@@H]2COC[C@H]2O)c(=O)n1-c1cccc(C(F)(F)F)c1 (racemic) [Example 48] . Reported IC50?
Output: < 0.001 µM

Input: If you can, please state the reported IC50 value of Cc1c(-c2ccnn2-c2ccc(C#N)cc2)n(S(=O)(=O)C2CC2)c(=O)n1-c1cccc(C(F)(F)F)c1 [Example 32] .
Output: < 0.001 µM

Input: Report IC50 for Cc1c(-c2nccn2-c2ccc(C#N)cc2)[nH]c(=O)n1-c1cccc(C(F)(F)F)c1 [Example 59] please.
Output: 0.01 to 0.05 µM

Input: Look at this molecule and give its reported IC50. CCCCn1c(-c2ccnn2-c2ccc(C#N)cc2)c(C)n(-c2cccc(C(F)(F)F)c2)c1=O [Example 26]
Output: 0.001 to 0.01 µM

Input: Param item = CCNS(=O)(=O)n1c(-c2ccnn2-c2ccc(C#N)cc2)c(C)n(-c2cccc(C(F)(F)F)c2)c1=O [Example 33] ; retrieve measured IC50.
Output: 0.001 to 0.01 µM

Input: Suppose we examine the molecule Cc1c(-c2ccnn2-c2ccc(C#N)cc2)n(CC(=O)NCCCN(C)C)c(=O)n1-c1cccc(C(F)(F)F)c1 [Example 39, formic acid salt] ; what IC50 value has been reported?
Output: 0.01 to 0.05 µM

Input: Tell me the measured IC50 of CCN(C)C(=O)n1c(-c2ccnn2-c2ccc(C#N)cc2)c(C)n(-c2cccc(C(F)(F)F)c2)c1=O [Example 21] , please.
Output: 0.01 to 0.05 µM

Input: Consider the molecule shown here: Cc1c(-c2ccnn2-c2ccc(C#N)cc2)n(CC(=O)OC(C)(C)C)c(=O)n1-c1cccc(C(F)(F)F)c1 [Example 20] What is its recorded IC50?
Output: 0.01 to 0.05 µM

Input: Please give the measured IC50 for this molecule: Cc1c(-c2ccnn2-c2ccc(C#N)cc2)n(C(=O)NCCO)c(=O)n1-c1cccc(C(F)(F)F)c1 [Example 7]
Output: 0.001 to 0.01 µM

Input: What value of IC50 has been reported for the following molecule? Cc1c(-c2ccnn2-c2ccc(C#N)cc2)n(C(=O)NCCN(C)C)c(=O)n1-c1cccc(C(F)(F)F)c1 [Example 12]
Output: 0.001 to 0.01 µM
